target: human glucagon receptor (human, UniProt P47871 26-477); test: cell-based or functional assay
Non-standard residues stand in square brackets, D forms with d. No end group written: not given here. *: point of attachment. Bip(2'-Et-4'-OMe) = CCc1cc(OC)ccc1-c1ccc(C[C@H](N)C(=O)O)cc1; 2F‑APPA = 2-amino-5-(2-fluorophenyl)pentanoic acid; αMePhe(2-F) = C[C@](N)(Cc1ccccc1F)C(=O)O; hhPhe = N[C@@H](CCCc1ccccc1)C(=O)O; aThr = C[C@H](O)[C@H](N)C(=O)O; CNB = not defined here; Aib = CC(C)(N)C(=O)O; Moc = COC(=O)*
Field: inhibition of cAMP production, 100 nM. Provide a value for each of the binders that follow.
Numbers only, in pmol/ml/µg prt.

// known answers, use as guide
H[Aib]QG[aThr][αMePhe(2-F)][aThr]SD[Bip(2'-Et-4'-OMe)][hhPhe] (also: thioamide bonds between residues 9-10 and 10-11) [Seq. ID. No. 177: H-Aib-QG-T(allo)-(α-Me-2F-Phe)-T(allo)-SD-(C═S)-Bip(OMe)-(C═S)-(APPA)] = 0
Moc-H[Aib]QG[aThr][αMePhe(2-F)][aThr]SD[Bip(2'-Et-4'-OMe)][2F‑APPA] (also: reduced (CH2) bond between 10 and 11) [Seq. ID. No. 188: CH3OCO-H-Aib-QG-T(allo)-(α-Me-2F-Phe)-T(allo)-SD-Bip(OMe)-(CH2)-(2F-APPA)] = 1

Note: attention shifts to another entry.
INPUT: So what's the measured inhibition of cAMP production, 100 nM for this one? H[Aib][CNB]G[aThr][αMePhe(2-F)][aThr]SD[Bip(2'-Et-4'-OMe)][hhPhe] (reading uncertain; also: reduced (CH2) bonds between 9-10 and 10-11) [Seq. ID. No. 202: H-Aib-(CNB)-G-T(allo)-(α-Me-2F-Phe)-T(allo)-SD-(CH2)-Bip(OMe)-(CH2)-(APPA)]
OUTPUT: 5
